- System: green foxtail (Setaria viridis, SETVI)
- assay-method-text: Post-emerge test, greenhouse herbicide activity screening
- Assay type: in vivo
- recorded-conditions: post-emerge, 250 g ai/ha, 14 days after application, rating scale 0-100

- structure-string: "COC(=O)Nc1c(OC)c(Cl)cc(F)c1-n1c(=O)cc(C(F)(F)F)n(C)c1=O"
  phytotoxicity rating SETVI: 10
- structure-string: "CCCCCC(=O)Nc1c(OC)c(Cl)cc(F)c1-n1c(=O)cc(C(F)(F)F)n(C)c1=O"
  phytotoxicity rating SETVI: 10
- structure-string: "Cn1c(C(F)(F)F)cc(=O)n(-c2ccc(Cl)cc2NC(=O)C2CC2)c1=O"
  phytotoxicity rating SETVI: 20
- structure-string: "Cc1c(Cl)cc(F)c(-n2c(=O)cc(C(F)(F)F)n(C)c2=O)c1NC(=O)C=Cc1ccccc1"
  phytotoxicity rating SETVI: 30

###

- System: field corn (Zea mays L., var. Dekalb 535, CORN)
- assay-method-text: Post-emerge test, crop safety
- Format: in vivo
- recorded-conditions: post-emerge, 63 g ai/ha, 14 days after application, rating scale 0-100
Returns: string. Value is Y if measured phytotoxicity rating CORN (crop damage) is below 10, and N if it is greater than or equal to it.

- structure-string: "Cn1c(C(F)(F)F)cc(=O)n(-c2c(F)cc(Cl)c(O)c2NC(=O)c2ccc3ccccc3c2)c1=O"
  assay-system: "field corn (Zea mays L., var. Dekalb 535, CORN)"
  group: "Y"
- structure-string: "Nn1c(C(F)(F)F)cc(=O)n(-c2c(F)cc(Cl)c(O)c2NC(=O)c2ccc3ccccc3c2)c1=O"
  assay-system: "field corn (Zea mays L., var. Dekalb 535, CORN)"
  group: "Y"
- structure-string: "Cn1c(C(F)(F)F)cc(=O)n(-c2ccc(Cl)cc2NC(=O)Oc2ccccc2)c1=O"
  assay-system: "field corn (Zea mays L., var. Dekalb 535, CORN)"
  group: "Y"
- structure-string: "COc1c(Cl)cc(F)c(-n2c(=O)cc(C(F)(F)F)n(C)c2=O)c1NC(=O)OCc1ccc(C(C)C)cc1"
  assay-system: "field corn (Zea mays L., var. Dekalb 535, CORN)"
  group: "Y"
- structure-string: "Cn1c(C(F)(F)F)cc(=O)n(-c2ccc(Cl)cc2NC(=O)OCc2ccccc2F)c1=O"
  assay-system: "field corn (Zea mays L., var. Dekalb 535, CORN)"
  group: "N"
- structure-string: "Cc1ccc(OC(=O)Nc2c(C)c(Cl)cc(F)c2-n2c(=O)cc(C(F)(F)F)n(C)c2=O)cc1C"
  assay-system: "field corn (Zea mays L., var. Dekalb 535, CORN)"
  group: "Y"
- structure-string: "COc1c(Cl)cc(F)c(-n2c(=O)cc(C(F)(F)F)n(C)c2=O)c1NC(=O)OCc1ccccc1C(F)(F)F"
  assay-system: "field corn (Zea mays L., var. Dekalb 535, CORN)"
  group: "N"
- structure-string: "COc1c(Cl)cc(F)c(-n2c(=O)cc(C(F)(F)F)n(C)c2=O)c1NC(=O)OCc1ccc2c(c1)OCO2"
  assay-system: "field corn (Zea mays L., var. Dekalb 535, CORN)"
  group: "N"
- structure-string: "COc1c(Cl)cc(F)c(-n2c(=O)cc(C(F)(F)F)n(C)c2=O)c1NC(=O)OCc1ccccn1"
  assay-system: "field corn (Zea mays L., var. Dekalb 535, CORN)"
  group: "N"
